- assaySummary: NCI Yeast Anticancer Drug Screen. Data for the bub3 strain (AID 167)
- protocolConditions: S. cerevisiae bub3 mutant strain, at 50.0 µM, active compounds read high
The panel holds about 79,000 compounds, 15% with a hit somewhere; the sample as a whole holds those more often. Activity calls are given as the source filed them. No stated cut-off is given here; in the data, active means growth inhibition above about 70%; inactive means the rest.
valueKind: growth inhibition

Please give the measured growth inhibition for this molecule: CC1OC(O)CC(NC(=O)C(F)(F)F)C1O (stereo not given) -1.1% (inactive)

---

growth inhibition for assorted compounds
- assaySummary: NCI Yeast Anticancer Drug Screen. Data for the cln2 rad14 strain (AID 165);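 further: 0% = growth equal to vehicle treated cultures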
- protocolConditions: S. cerevisiae cln2 rad14 strain, at 50.0 µM, active compounds read high
The panel holds about 79,000 compounds, 15% with a hit somewhere; the sample as a whole holds those more often.
Just the number please, in %, no unit attached.

O=C(O)CSCc1ccccc1Cl; 8.25
CCCCOC(=O)/C=C/C(=O)N1CCN(C(=O)/C=C/C(=O)OCCCC)C(C)C1 (stereo unspecified); -11.1
Cc1ccccc1N=Nc1c(-c2ccccc2)nn(C(N)=S)c1-c1ccccc1; 4.05
O=C(O)C(c1ccc(-c2ccccc2)cc1)C1CCCCC1 (stereo unspecified); 3.35
Cc1cc(C)c(N=Nc2cc(C)c(N)cc2N)c(S(=O)(=O)O)c1; -61.5
CN(CCNC(=O)NCCCCCCNC(=O)NCCN(C)c1ccccc1)c1ccccc1; -33.2

Please give the measured growth inhibition for this compound: FC(F)(F)C(F)(F)c1nc(C(F)(F)C(F)(F)C(F)(F)c2noc(C(F)(F)C(F)(F)F)n2)no1 -31.3

Please give the measured growth inhibition for this compound: CC(=O)OC1CCCCCCC1 -3.2

Please give the measured growth inhibition for this compound: O=C(CC(=O)n1nc(-c2ccccc2)c(N=Nc2ccc([N+](=O)[O-])cc2)c1-c1ccccc1)Nc1ccc(Cl)cc1 17.4

Please give the measured growth inhibition for this compound: CSC(=S)n1nc(-c2ccccc2)c(N=Nc2ccccc2[N+](=O)[O-])c1-c1ccccc1 -30.9

Please give the measured growth inhibition for this compound: Cc1ccc2c(c1)CCCN2 21.6
